Origin of values: patent US20240116985A1

PROCEDURE_SUMMARY: CHI Log D procedure
Type: physicochemical
CONDITION_INFO: pH 7.4
ENDPOINT: CHI Log D
Output spec: single numeric token, no unit.

Below: 2 molecules and their reported CHI Log D.
>>> measured("CC(=O)N1CCC[C@]12CC=CCCCC1(CCCC=CCCCCCC[C@@](C)(C(=O)N[C@@H](Cc3ccccc3)C(=O)N[C@@H](Cc3c[nH]c4ccccc34)C(=O)N[C@@H](CO)C(N)=O)NC(=O)[C@H](C(C)C)NC(=O)[C@H](Cc3ccccc3)NC(=O)[C@H](C)NC(=O)[C@H](C)NC(=O)[C@H](CC(=O)O)NC(=O)[C@H](CC(=O)O)NC1=O)NC(=O)[C@H](C)NC(=O)[C@H](CC(=O)O)NC2=O (single isomer, unassigned)")
1.928
>>> measured("CC[C@H](C)[C@@H]1NC(=O)[C@H](CC(=O)O)NC(=O)[C@]2(CC=CCCCC3(CCCC=CCCCCCC[C@@](C)(C(=O)N[C@@H](Cc4ccccc4OC)C(=O)N[C@@H](Cc4csc5ccccc45)C(=O)N[C@@H](Cc4c[nH]cn4)C(N)=O)NC(=O)[C@H](CC(N)=O)NC(=O)[C@H](Cc4ccccc4)NC(=O)[C@H](C)NC(=O)[C@H](C)NC(=O)[C@H](CC(=O)O)NC(=O)[C@H](CC(=O)O)NC3=O)NC1=O)CCCN2C(C)=O (stereo partly drawn) [I-553]")
2.398

Now let's try a different one.
// query Query: CHI Log D; subject: CC(=O)N1CCC[C@]12CC=CCCCC1(CCCC=CCCCCCC[C@@](C)(C(=O)N[C@@H](Cc3ccccc3)C(=O)N[C@@H](Cc3csc4ccccc34)C(=O)N[C@@H](CCO)C(N)=O)NC(=O)[C@H](CCC(N)=O)NC(=O)[C@H](Cc3ccccc3)NC(=O)[C@H](C)NC(=O)[C@H](C)NC(=O)[C@H](CCC(=O)O)NC(=O)[C@H](CC(=O)O)NC1=O)NC(=O)[C@H](C)NC(=O)[C@H](CC(=O)O)NC2=O (stereo partly drawn) [I-491]
// result 2.023

* * *

PROCEDURE_SUMMARY: CHI Log D procedure
Assay type: physicochemical
CONDITION_INFO: pH 7.4
ENDPOINT: chromatographic logD
Output spec: single numeric token, no unit.

// query Query: chromatographic logD; subject: C[C@@H]1NC(=O)[C@H](C)NC(=O)[C@H](CC(=O)O)NC(=O)[C@H](CC(=O)O)NC(=O)C2(CCCC=CCCCOC(=O)N3CC[C@@](C(=O)N[C@@H](Cc4ccccc4)C(=O)N[C@@H](Cc4csc5ccccc45)C(=O)N[C@@H](Cc4c[nH]cn4)C(N)=O)(C3)NC(=O)[C@H](CC(N)=O)NC(=O)[C@H](Cc3ccccc3)NC1=O)CCCC=CC[C@]1(CCCN1C(=O)CN=[N+]=[N-])C(=O)N[C@@H](CC(=O)O)C(=O)N[C@@H](CC(C)(C)C)C(=O)N2 (stereo partly shown)
// result 2.11

* * *

Let's look at some compounds and their measured CHI Log D.
PROCEDURE_SUMMARY: CHI Log D procedure
Type: physicochemical
CONDITION_INFO: pH 7.4
Output spec: single numeric token, no unit.

>>> measured("CCC[C@@H]1NC(=O)[C@H](CC(=O)O)NC(=O)[C@]2(CC=CCCCC3(CCCC=CCCCCCC[C@@](C)(C(=O)N[C@@H](Cc4ccccc4)C(=O)N[C@@H](Cc4csc5ccccc45)C(=O)N[C@@H](CCC(N)=O)C(N)=O)NC(=O)[C@H](CCC(N)=O)NC(=O)[C@H](Cc4ccccc4)NC(=O)[C@H](C)NC(=O)[C@H](C)NC(=O)[C@H](CCC(=O)O)NC(=O)[C@H](CC(=O)O)NC3=O)NC1=O)CCCN2C(C)=O (stereo partly drawn) [I-522]")
2.214
>>> measured("CC(=O)N1CCC[C@]12CC=CCCCC1(CCCC=CCCCCCC[C@@](C)(C(=O)N[C@@H](Cc3ccccc3)C(=O)N[C@@H](Cc3c[nH]c4ccccc34)C(N)=O)NC(=O)[C@H](C(C)C)NC(=O)[C@H](Cc3ccccc3)NC(=O)[C@H](C)NC(=O)[C@H](C)NC(=O)[C@H](CC(=O)O)NC(=O)[C@H](CC(=O)O)NC1=O)NC(=O)[C@H](C)NC(=O)[C@H](CC(=O)O)NC2=O (stereo partly drawn) [I-290]")
2.271

// query Query: CHI Log D; subject: CC(=O)N1CCC[C@]12CC=CCCCC1(CCCC=CCCCCCC[C@@](C)(C(=O)N[C@@H](Cc3ccccc3)C(=O)N[C@@H](Cc3c[nH]c4ccccc34)C(=O)N[C@@H](CCC(N)=O)C(N)=O)NC(=O)[C@H](C(C)C)NC(=O)[C@H](Cc3ccccc3)NC(=O)[C@H](C)NC(=O)[C@H](C)NC(=O)[C@@](C)(CC(C)C)NC(=O)[C@H](CC(=O)O)NC1=O)NC(=O)[C@H](C)NC(=O)[C@H](CC(=O)O)NC2=O (single isomer, unassigned)
// result 2.867

* * *

PROCEDURE_SUMMARY: Solubility in PBS
Type: physicochemical
ENDPOINT: Solubility (µM)
// note: answer is a bare numeric in µM

Below: 4 compounds and their reported Solubility.
>>> measured("CC(=O)N1CCC[C@]12CC=CCCCC1(CCCC=CCCCOC(=O)N3CC[C@@](C(=O)N[C@@H](Cc4ccsc4)C(=O)N[C@@H](Cc4csc5ccccc45)C(=O)N[C@@H](Cc4c[nH]cn4)C(N)=O)(C3)NC(=O)[C@H](CC(N)=O)NC(=O)[C@H](Cc3ccccc3)NC(=O)[C@H](C)NC(=O)[C@H](C)NC(=O)[C@H](CCC(=O)O)NC(=O)[C@H](CC(=O)O)NC1=O)NC(=O)[C@H](CC(C)(C)C)NC(=O)[C@H](CC(=O)O)NC2=O (some centres unmarked) [I-698]")
43
>>> measured("CC(=O)N1CCC[C@]12CC=CCCCC1(CCCC=CCCCCCC[C@@](C)(C(=O)N[C@@H](Cc3ccccc3)C(=O)N[C@@H](Cc3c[nH]c4ccccc34)C(=O)N[C@@H](CCC(N)=O)C(N)=O)NC(=O)[C@H](C(C)C)NC(=O)[C@H](Cc3ccco3)NC(=O)[C@H](C)NC(=O)[C@H](C)NC(=O)[C@H](CC(=O)O)NC(=O)[C@H](CC(=O)O)NC1=O)NC(=O)[C@H](C)NC(=O)[C@H](CC(=O)O)NC2=O (some centres unmarked) [I-327]")
43
>>> measured("CC(=O)N1CCC[C@]12CC=CCCCC1(CCCC=CCCCOC(=O)N3CC[C@@](C(=O)N[C@@H](Cc4ccsc4)C(=O)N[C@@H](Cc4csc5ccccc45)C(=O)N[C@@H](CCC(N)=O)C(N)=O)(C3)NC(=O)[C@H](CC(N)=O)NC(=O)[C@H](Cc3ccccc3)NC(=O)[C@H](C)NC(=O)[C@H](CCCCNC(=O)CN=[N+]=[N-])NC(=O)[C@H](CC(=O)O)NC(=O)[C@H](CC(=O)O)NC1=O)NC(=O)[C@H](CC(C)(C)C)NC(=O)[C@H](CC(=O)O)NC2=O (some centres unmarked)")
45
>>> measured("CC(=O)N1CCC[C@]12CC=CCCCC1(CCCC=CCCCCCC[C@@](C)(C(=O)N[C@@H](Cc3ccccc3)C(=O)N[C@@H](Cc3csc4ccccc34)C(=O)N[C@@H](CCC(N)=O)C(N)=O)NC(=O)[C@H](CCC(N)=O)NC(=O)[C@H](Cc3ccccc3)NC(=O)[C@H](C)NC(=O)[C@H](C)NC(=O)[C@H](CCC(=O)O)NC(=O)[C@H](CC(=O)O)NC1=O)NC(=O)[C@H](CC(F)(F)F)NC(=O)[C@H](CC(=O)O)NC2=O (some centres unmarked) [I-501]")
49

// query Query: Solubility; subject: CC[C@H](C)[C@H](NC(=O)[C@H](Cc1c[nH]cn1)NC(=O)[C@H](Cc1csc2ccccc12)NC(=O)[C@H](Cc1ccccc1)NC(=O)[C@]1(C)CCCCCCC=CCCCC2(CCCC=CC[C@]3(CCCN3C(C)=O)C(=O)N[C@@H](CC(=O)O)C(=O)N[C@@H](CC(C)C)C(=O)N2)C(=O)N[C@@H](CC(=O)O)C(=O)N[C@@H](CCC(=O)O)C(=O)N[C@@H](C)C(=O)N[C@@H](C)C(=O)N[C@@H](Cc2ccccc2)C(=O)N[C@@H](CC(N)=O)C(=O)N1)C(N)=O (some centres unmarked)
// result 10

* * *

PROCEDURE_SUMMARY: Solubility in PBS
Format: physicochemical
CONDITION_INFO: Solubility (uM)
ENDPOINT: Solubility (µM)
// note: answer is a bare numeric in µM

// query Query: Solubility; subject: CC(=O)N1CCC[C@]12CC=CCCCC1(CCCC=CCCCOC(=O)N3CC[C@@](C(=O)N[C@@H](Cc4ccccc4Cl)C(=O)N[C@@H](Cc4csc5ccccc45)C(=O)N[C@@H](CC(C)C)C(N)=O)(C3)NC(=O)[C@H](CO)NC(=O)[C@H](Cc3ccccc3)NC(=O)[C@H](C)NC(=O)[C@H](C)NC(=O)[C@H](CC(=O)O)NC(=O)[C@H](CC(=O)O)NC1=O)NC(=O)[C@H](Cc1ccccc1)NC(=O)[C@H](CC(=O)O)NC2=O (some centres unmarked)
// result 32

// query Query: Solubility; subject: CC(=O)N1CCC[C@]12CC=CCCCC1(CCCC=CCCCOC(=O)N3CC[C@@](C(=O)N[C@@H](Cc4ccccc4Cl)C(=O)N[C@@H](Cc4csc5ccccc45)C(=O)N[C@@H](CO)C(N)=O)(C3)NC(=O)[C@H]([C@@H](C)O)NC(=O)[C@H](Cc3ccccc3)NC(=O)[C@H](C)NC(=O)[C@H](C)NC(=O)[C@H](CC(=O)O)NC(=O)[C@H](CC(=O)O)NC1=O)NC(=O)[C@H](Cc1ccc3ccccc3c1)NC(=O)[C@H](CC(=O)O)NC2=O (some centres unmarked)
// result 32

// query Query: Solubility; subject: CC(=O)N1CCC[C@]12CC=CCCCC1(CCCC=CCCCCCC[C@@](C)(C(=O)N[C@@H](Cc3ccccc3)C(=O)N[C@@H](Cc3csc4ccccc34)C(=O)N[C@@H](CCC(N)=O)C(N)=O)NC(=O)[C@H](CCC(N)=O)NC(=O)[C@H](Cc3ccccc3)NC(=O)[C@H](C)NC(=O)[C@H](C)NC(=O)[C@H](CCC(=O)O)NC(=O)[C@H](CC(=O)O)NC1=O)NC(=O)[C@H](CC(C)(C)C)NC(=O)[C@H](CC(=O)O)NC2=O (some centres unmarked)
// result 48

// query Query: Solubility; subject: CC(=O)N1CCC[C@]12CC=CCCCC1(CCCC=CCCCCCC[C@@](C)(C(=O)N[C@@H](Cc3ccccc3)C(=O)N[C@@H](Cc3csc4ccccc34)C(N)=O)NC(=O)[C@H](CC(N)=O)NC(=O)[C@H](Cc3ccccc3)NC(=O)[C@H](C)NC(=O)[C@H](C)NC(=O)[C@H](CCC(=O)O)NC(=O)[C@H](CC(=O)O)NC1=O)NC(=O)[C@H](C)NC(=O)[C@H](CC(=O)O)NC2=O (some centres unmarked)
// result 23

// query Query: Solubility; subject: CC(=O)N1CCC[C@]12CC=CCCCC1(CCCC=CCCCOC(=O)N3CC[C@@](C(=O)N[C@@H](Cc4ccsc4)C(=O)N[C@@H](Cc4csc5ccccc45)C(N)=O)(C3)NC(=O)[C@H](CC(N)=O)NC(=O)[C@H](Cc3ccccc3)NC(=O)[C@H](C)NC(=O)[C@H](C)NC(=O)[C@H](CCC(=O)O)NC(=O)[C@H](CC(=O)O)NC1=O)NC(=O)[C@H](CC(C)(C)C)NC(=O)[C@H](CC(=O)O)NC2=O (some centres unmarked)
// result 39
